Sourced from the supplement of paper PMC10126150

- Tested on: ATP;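 note: ATP exposure 15 min at 22 °C before imaging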
- Protocol description: switch fluorescence ratio, 500 uM ATP over buffer (Cy3 cluster intensity, sum of 5 cycles each) (fold (ratio)); higher = stronger signal-on switching upon ATP binding; sequences stand for … in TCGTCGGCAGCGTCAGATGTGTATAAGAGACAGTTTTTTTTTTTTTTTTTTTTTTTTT…TC
- Condition description: aptamer strand: ATP DNA aptamer (quencher-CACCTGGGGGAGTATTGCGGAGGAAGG + anchor), 100 nM annealed; ATP concentration: 500 uM
Overview of reported switch fluorescence ratio across a group of sequences:
Readout: switch fluorescence ratio

Biopolymer sequence	Tgt	Readout	Result number
GCAACGGGTT	ATP	switch fluorescence ratio	1.16
TACTCGAGTT	ATP	switch fluorescence ratio	0.977
GGATGAAGGA	ATP	switch fluorescence ratio	0.978
GCTATCGGTT	ATP	switch fluorescence ratio	1.01
AGGATTCGGG	ATP	switch fluorescence ratio	1.01
TGTCGGATCG	ATP	switch fluorescence ratio	1
TGCACACGTG	ATP	switch fluorescence ratio	0.979
ACATTCCAGT	ATP	switch fluorescence ratio	1.14
GTTGGGTATA	ATP	switch fluorescence ratio	0.996
AGAGCGGA	ATP	switch fluorescence ratio	0.981
CCGGAGAGTT	ATP	switch fluorescence ratio	1.58
TGAGGCATGT	ATP	switch fluorescence ratio	1.05
TCAGGCTAGG	ATP	switch fluorescence ratio	1.02
TTGACTTACT	ATP	switch fluorescence ratio	1.18
TCACGCTTTT	ATP	switch fluorescence ratio	1.11
GAGGGGCCTC	ATP	switch fluorescence ratio	1.03
ATGTGTTGTG	ATP	switch fluorescence ratio	0.98

* * *

- System: ATP;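 note: ATP exposure 15 min at 22 °C before imaging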
- Protocol description: switch fluorescence ratio, 500 uM ATP over buffer (Cy3 cluster intensity, sum of 5 cycles each) (fold (ratio)); higher = stronger signal-on switching upon ATP binding; sequences stand for … in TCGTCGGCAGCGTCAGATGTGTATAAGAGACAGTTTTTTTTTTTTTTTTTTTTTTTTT…TC
- Condition description: aptamer strand: ATP DNA aptamer (quencher-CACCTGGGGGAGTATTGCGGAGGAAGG + anchor), 100 nM annealed; ATP concentration: 500 uM
Measured switch fluorescence ratio accompanies every entry in the list below.
Readout: switch fluorescence ratio

Biopolymer sequence	Tgt	Result number
AAAGCGCGCT	ATP	1
CTTGTCATGA	ATP	1.02
ATTTGGTGCT	ATP	0.999
GGGGTAACGG	ATP	0.987
AAGACTGTTT	ATP	0.954
GGTCGGGACC	ATP	0.998
GGCTATGGGT	ATP	1.02
AGCTACGGTG	ATP	1.04
TTAGGGTGTT	ATP	1
GGCTATAATA	ATP	1.01
GGTTTTTCGC	ATP	1.03
TAATCGACTT	ATP	1.02
AAGCTAAAAT	ATP	0.996
TTTTGGGTGC	ATP	1.08

* * *

- Test system: ATP;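 note: ATP exposure 15 min at 22 °C before imaging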
- Protocol description: switch fluorescence ratio, 500 uM ATP over buffer (Cy3 cluster intensity, sum of 5 cycles each) (fold (ratio)); higher = stronger signal-on switching upon ATP binding; sequences stand for … in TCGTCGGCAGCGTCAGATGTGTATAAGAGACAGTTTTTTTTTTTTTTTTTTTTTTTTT…TC
- Condition description: aptamer strand: ATP DNA aptamer (quencher-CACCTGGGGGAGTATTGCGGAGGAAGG + anchor), 100 nM annealed; ATP concentration: 500 uM
switch fluorescence ratio values for the sequences below.
Readout: switch fluorescence ratio

Biopolymer sequence	Result number
TGGTAATTAG	0.979
TGAAGACAAC	1.04
GAGGTTCAGT	0.989
CTAGGTGGAC	1.01
TAAGTGTAAA	0.986
AACTTAGTAT	1.02
TGAATTTTTA	1
TAGTTAGACG	1.11
CACTTGGAGC	0.944
GCATTTCAGG	0.988
TTTGGTACCC	1.01
TGGACTAGGG	0.975
TTATATTGTT	0.984
GGGAGGATGT	0.997
AACGCGAACG	1.06
GTTGCGTCTA	1.04
TAAGGTCGGC	0.986

* * *

- Tested on: ATP;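 note: ATP exposure 15 min at 22 °C before imaging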
- Protocol description: switch fluorescence ratio, 500 uM ATP over buffer (Cy3 cluster intensity, sum of 5 cycles each) (fold (ratio)); higher = stronger signal-on switching upon ATP binding; sequences stand for … in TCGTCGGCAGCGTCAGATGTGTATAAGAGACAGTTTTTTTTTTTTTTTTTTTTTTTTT…TC
- Condition description: aptamer strand: ATP DNA aptamer (quencher-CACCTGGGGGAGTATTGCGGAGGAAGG + anchor), 100 nM annealed; ATP concentration: 500 uM

Biopolymer sequence	switch fluorescence ratio
TATTGATAGC	1.01
ATGAAGTTGT	1.02
TCACAGCCG	1.05
CTGGGTAGGC	0.992

* * *

- System: ATP;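 note: ATP exposure 15 min at 22 °C before imaging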
- Protocol description: switch fluorescence ratio, 500 uM ATP over buffer (Cy3 cluster intensity, sum of 5 cycles each) (fold (ratio)); higher = stronger signal-on switching upon ATP binding; sequences stand for … in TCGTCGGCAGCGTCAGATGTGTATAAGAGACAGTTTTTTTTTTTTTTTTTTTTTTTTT…TC
- Condition description: aptamer strand: ATP DNA aptamer (quencher-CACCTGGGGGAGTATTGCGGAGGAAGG + anchor), 100 nM annealed; ATP concentration: 500 uM
Recorded measurements of switch fluorescence ratio, one per entry

Biopolymer sequence	Tgt	switch fluorescence ratio
TGTTGGTTCG	ATP	0.97
CGCTGGGGGG	ATP	1.02
CCGAGGGAGA	ATP	1.25
TGATAAGTG	ATP	0.988
ATCCATACAA	ATP	1.03
CTTGAGGGGG	ATP	1.04
AAGAGCGAGG	ATP	0.945
TTATTGGGCT	ATP	1.01
CCCGAGTGGG	ATP	0.992
ATATTTGGAT	ATP	1.03
CTGGTTCGTC	ATP	1
TTTCTGTTCG	ATP	0.989
ATTGAGTTTA	ATP	0.999
TTAGTATGAC	ATP	1.02
TGGGGGCGCG	ATP	0.984
GAGTTTAGCG	ATP	0.982
TATGAGGGGC	ATP	0.967
AGTGGATTGG	ATP	1.01
TTTTTTACGA	ATP	1.04

* * *

- System: ATP;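 note: ATP exposure 15 min at 22 °C before imaging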
- Protocol description: switch fluorescence ratio, 500 uM ATP over buffer (Cy3 cluster intensity, sum of 5 cycles each) (fold (ratio)); higher = stronger signal-on switching upon ATP binding; sequences stand for … in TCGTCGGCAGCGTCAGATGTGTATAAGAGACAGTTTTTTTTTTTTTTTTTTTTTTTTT…TC
- Condition description: aptamer strand: ATP DNA aptamer (quencher-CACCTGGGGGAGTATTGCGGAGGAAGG + anchor), 100 nM annealed; ATP concentration: 500 uM
Think of 1 as a floor: if switch fluorescence ratio stands on it or above, it is rule met; beneath it, rule not met.

Biopolymer sequence	Classification
GCCGGGGGTT	rule met
TTTTTGGACG	rule not met
GAGCATAGTT	rule met
CTATGGCGCA	rule met

* * *

- Test system: ATP;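 note: ATP exposure 15 min at 22 °C before imaging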
- Protocol description: switch fluorescence ratio, 500 uM ATP over buffer (Cy3 cluster intensity, sum of 5 cycles each) (fold (ratio)); higher = stronger signal-on switching upon ATP binding; sequences stand for … in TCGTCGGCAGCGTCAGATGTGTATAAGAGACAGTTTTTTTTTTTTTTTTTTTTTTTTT…TC
- Condition description: aptamer strand: ATP DNA aptamer (quencher-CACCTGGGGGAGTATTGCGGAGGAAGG + anchor), 100 nM annealed; ATP concentration: 500 uM

Biopolymer sequence	switch fluorescence ratio
AGAGGTTAAG	1.03
GCCCATTTCT	1.03
ATATAACAGG	1.03
TACGGGGGAT	1.02
AGGTTTTCGT	1.03
GCTGACTTGG	0.971
TATGCATTTC	1.08
GTATTCGGTG	0.982
GAAGCTGAAT	1.01
GCTGATATAA	1.01
TACAGAGTTT	0.977
GCAAAGCGTC	0.982
ATGTGAAAGA	0.982
AGGCTAAGAT	1.01
TGGATAAAGT	0.985

* * *

- System: ATP;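 note: ATP exposure 15 min at 22 °C before imaging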
- Protocol description: switch fluorescence ratio, 500 uM ATP over buffer (Cy3 cluster intensity, sum of 5 cycles each) (fold (ratio)); higher = stronger signal-on switching upon ATP binding; sequences stand for … in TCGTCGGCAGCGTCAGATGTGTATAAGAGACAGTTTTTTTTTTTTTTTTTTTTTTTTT…TC
- Condition description: aptamer strand: ATP DNA aptamer (quencher-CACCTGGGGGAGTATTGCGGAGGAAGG + anchor), 100 nM annealed; ATP concentration: 500 uM

Biopolymer sequence	Tgt	switch fluorescence ratio
AAGGATTAAC	ATP	0.985
TTGGATTTCA	ATP	0.972
GATTGGGCTT	ATP	0.998
TGCCCTTCAT	ATP	1.04
TTTTGGGGAC	ATP	0.988
TGGTTGGATG	ATP	1
TATAGCCTAG	ATP	0.99
ATGCGTCGCG	ATP	0.986
ACATATTGTG	ATP	1.03
TCGTTCGTAT	ATP	0.987
GGGGAGGACT	ATP	1
TCGTCGTGGG	ATP	1.02
TTCTAAAGTA	ATP	0.994
TCACGTTCAA	ATP	1.06
CTAGCAACGC	ATP	1.08
GGTGGGCTAA	ATP	0.983
TATTAAGTAT	ATP	1.01
AGTTGGCGGA	ATP	0.999
TTCAGCTGAG	ATP	0.986
AAAAGCTCCG	ATP	1.05
ATAATGCTCT	ATP	1.02
GCAGATGATC	ATP	1.03
TAATTTTAGG	ATP	0.996
CTGCGGGTGC	ATP	1.31
ACGGGTTCCA	ATP	1.08
GCGTGTTCGT	ATP	1.03
TACAGCTGTG	ATP	0.986
TGTTGGAGGA	ATP	0.994
GGTGCGATGC	ATP	1.7
TACGATGGTA	ATP	0.979
TTGTAATTAG	ATP	1
AAAGTCTAC	ATP	1
ACCAGGTGGG	ATP	2.75
GGGAGATTGT	ATP	0.999
